target: OPRK (Homo sapiens); assay: cell-based; format: cell-based
Sequence (P41145 whole entry): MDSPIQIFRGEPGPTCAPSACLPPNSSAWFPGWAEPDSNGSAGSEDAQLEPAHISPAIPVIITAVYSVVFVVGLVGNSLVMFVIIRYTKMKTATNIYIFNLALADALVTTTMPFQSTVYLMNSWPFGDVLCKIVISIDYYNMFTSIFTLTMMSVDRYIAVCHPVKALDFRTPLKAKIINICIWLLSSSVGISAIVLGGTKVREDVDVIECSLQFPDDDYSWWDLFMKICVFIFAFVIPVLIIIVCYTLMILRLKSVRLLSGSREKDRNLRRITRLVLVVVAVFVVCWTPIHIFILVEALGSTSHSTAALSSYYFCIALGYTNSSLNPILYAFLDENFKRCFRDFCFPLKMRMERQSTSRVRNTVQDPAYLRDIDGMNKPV
readout-name: AC50
Please report the result as a number followed by the unit.

Reference set (3 entries):
INSERT INTO assay_data (compound, readout_name, val) VALUES
  ('COc1ccc(NC(=O)Cn2c(=O)n(-c3ccc(CC(=O)NCC4CCCO4)cc3)c(=O)c3ccccc32)c(OC)c1 (stereo not shown) [NCGC00106344-01]', 'AC50', '2060 nM'),
  ('Nc1ncnc2c1ncn2[C@@H]1O[C@@H]2COP(O)(=S)O[C@H]2[C@H]1O (stereo partly shown) [NCGC00485585-01, Adenosine 3’,5’-cyclothiophosphate]', 'AC50', '70 nM'),
  ('Cc1cccc(-c2[nH]c(Cc3cccc(C(N)=O)c3)nc2-c2ccc3nccnc3c2)n1 [NCGC00386726-01, IN-1130]', 'AC50', '2060 nM');

Consider the additional compound presented here.
Record summary for Nc1ncnc2c1nc(Cl)n2[C@@H]1O[C@@H]2COP(=O)(O)O[C@H]2[C@H]1O [NCGC00485288-01, Tocladesine] : reported AC50 = 920 nM
